target: VEGFR-2 (Homo sapiens, UniProt P35968); construct: assess the effect of our new ureas on these two proteins only on the HT-29 cancer cell line through the use of flow cytometry; endogenous in cells; host or cells: HT-29; experiment: VEGFR-2 relative quantification by flow cytometry in HT-29 cells; format: cell-based; details: HT-29 cells, 100 μM, 24 h, relative to DMSO control = 100
Sequence (P35968 20-1356): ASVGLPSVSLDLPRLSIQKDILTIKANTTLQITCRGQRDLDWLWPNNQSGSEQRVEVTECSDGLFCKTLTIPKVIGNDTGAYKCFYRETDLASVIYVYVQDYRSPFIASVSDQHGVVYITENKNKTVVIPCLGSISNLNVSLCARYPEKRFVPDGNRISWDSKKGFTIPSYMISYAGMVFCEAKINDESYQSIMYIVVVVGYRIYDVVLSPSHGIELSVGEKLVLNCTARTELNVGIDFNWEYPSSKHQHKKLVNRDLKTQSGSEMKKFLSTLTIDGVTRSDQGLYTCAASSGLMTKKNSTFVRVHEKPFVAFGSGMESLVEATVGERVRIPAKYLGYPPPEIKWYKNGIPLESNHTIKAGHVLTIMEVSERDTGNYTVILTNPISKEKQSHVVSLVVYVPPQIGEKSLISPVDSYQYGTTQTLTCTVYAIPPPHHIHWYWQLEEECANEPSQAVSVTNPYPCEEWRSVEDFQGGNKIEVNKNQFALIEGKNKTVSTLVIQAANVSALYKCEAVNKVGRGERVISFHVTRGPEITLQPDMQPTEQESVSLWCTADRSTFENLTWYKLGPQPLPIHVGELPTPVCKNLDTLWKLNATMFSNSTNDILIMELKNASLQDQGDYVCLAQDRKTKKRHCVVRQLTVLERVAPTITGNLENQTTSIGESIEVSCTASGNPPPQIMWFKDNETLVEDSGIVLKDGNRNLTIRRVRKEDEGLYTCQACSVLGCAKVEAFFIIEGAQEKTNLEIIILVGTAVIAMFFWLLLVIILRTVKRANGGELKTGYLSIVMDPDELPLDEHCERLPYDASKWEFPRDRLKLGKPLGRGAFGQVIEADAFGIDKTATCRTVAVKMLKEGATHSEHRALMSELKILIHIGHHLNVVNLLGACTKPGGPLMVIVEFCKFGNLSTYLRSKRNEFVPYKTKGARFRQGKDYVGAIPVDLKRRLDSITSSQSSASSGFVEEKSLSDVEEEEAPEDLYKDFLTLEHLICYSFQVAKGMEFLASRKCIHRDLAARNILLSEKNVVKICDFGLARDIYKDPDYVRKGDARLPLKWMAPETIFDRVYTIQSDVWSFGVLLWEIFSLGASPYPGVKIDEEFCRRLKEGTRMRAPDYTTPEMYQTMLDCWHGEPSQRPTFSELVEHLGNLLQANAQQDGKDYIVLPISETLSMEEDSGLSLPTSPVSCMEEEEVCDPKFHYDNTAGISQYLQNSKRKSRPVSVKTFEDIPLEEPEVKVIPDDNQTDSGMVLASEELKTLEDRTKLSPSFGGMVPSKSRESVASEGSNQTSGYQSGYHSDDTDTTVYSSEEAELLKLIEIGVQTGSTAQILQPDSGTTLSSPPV
Readout: total VEGFR-2 (%) expression

>  <Molecule>
COc1ccc(CCCc2cccc(NC(=O)Nc3ccc(OC)cc3)c2)cc1 [C.12]

>  <Reported>
65 ± 45%

$$$$
>  <Molecule>
COc1ccc(CCCc2cccc(NC(=O)Nc3ccccc3OC)c2)cc1 [C.14]

>  <Reported>
32 ± 9%

$$$$
>  <Molecule>
COc1ccc(CCCc2cccc(NC(=O)Nc3ccc(F)cc3)c2)cc1 [C.3]

>  <Reported>
40 ± 7%

$$$$
>  <Molecule>
COc1ccc(CCCc2cccc(NC(=O)Oc3ccccc3)c2)cc1 [C.1]

>  <Reported>
191 ± 87%

$$$$
